# Test system: MRSA Staphylococcus aureus 700699
# protocol.summary: MIC of antibiotics against MRSA Staphylococcus aureus 700699 with or without spermine
# Type: cell-based
# conditions.used: Staphylococcus aureus, MRSA; no spermine; read-out: MICs in the absence or presence of spermine: No add
measured.endpoint: MIC

State its MIC: NC[C@H]1O[C@H](O[C@H]2[C@H](O)[C@@H](O[C@H]3O[C@H](CO)[C@@H](O)[C@H](N)[C@H]3O)[C@H](N)C[C@@H]2N)[C@H](O)[C@@H](O)[C@@H]1O
> 16 µg/mL

State its MIC: CO/N=C(\C(=O)N[C@@H]1C(=O)N2C(C(=O)O)=C(COC(C)=O)CS[C@H]12)c1csc(N)n1
128 µg/mL

Now examine the next entry.
State its MIC: CCN1CCN(C(=O)N[C@@H](C(=O)N[C@@H]2C(=O)N3C(C(=O)O)=C(CSc4nnnn4C)CS[C@H]23)c2ccc(O)cc2)C(=O)C1=O
> 512 µg/mL
